target: NR2B-subtype NMDA receptors (Rattus norvegicus (Rat), UniProt P35439+Q00960); test: Radioligand binding assay (3H Ro 25-6981 competition, forebrain membranes); conditions: 3H Ro 25-6981 (4 nM), listed as 44, E-2, read-out: NR2B Binding Ki
Sequence (Q00960 27-1482, other chains not shown): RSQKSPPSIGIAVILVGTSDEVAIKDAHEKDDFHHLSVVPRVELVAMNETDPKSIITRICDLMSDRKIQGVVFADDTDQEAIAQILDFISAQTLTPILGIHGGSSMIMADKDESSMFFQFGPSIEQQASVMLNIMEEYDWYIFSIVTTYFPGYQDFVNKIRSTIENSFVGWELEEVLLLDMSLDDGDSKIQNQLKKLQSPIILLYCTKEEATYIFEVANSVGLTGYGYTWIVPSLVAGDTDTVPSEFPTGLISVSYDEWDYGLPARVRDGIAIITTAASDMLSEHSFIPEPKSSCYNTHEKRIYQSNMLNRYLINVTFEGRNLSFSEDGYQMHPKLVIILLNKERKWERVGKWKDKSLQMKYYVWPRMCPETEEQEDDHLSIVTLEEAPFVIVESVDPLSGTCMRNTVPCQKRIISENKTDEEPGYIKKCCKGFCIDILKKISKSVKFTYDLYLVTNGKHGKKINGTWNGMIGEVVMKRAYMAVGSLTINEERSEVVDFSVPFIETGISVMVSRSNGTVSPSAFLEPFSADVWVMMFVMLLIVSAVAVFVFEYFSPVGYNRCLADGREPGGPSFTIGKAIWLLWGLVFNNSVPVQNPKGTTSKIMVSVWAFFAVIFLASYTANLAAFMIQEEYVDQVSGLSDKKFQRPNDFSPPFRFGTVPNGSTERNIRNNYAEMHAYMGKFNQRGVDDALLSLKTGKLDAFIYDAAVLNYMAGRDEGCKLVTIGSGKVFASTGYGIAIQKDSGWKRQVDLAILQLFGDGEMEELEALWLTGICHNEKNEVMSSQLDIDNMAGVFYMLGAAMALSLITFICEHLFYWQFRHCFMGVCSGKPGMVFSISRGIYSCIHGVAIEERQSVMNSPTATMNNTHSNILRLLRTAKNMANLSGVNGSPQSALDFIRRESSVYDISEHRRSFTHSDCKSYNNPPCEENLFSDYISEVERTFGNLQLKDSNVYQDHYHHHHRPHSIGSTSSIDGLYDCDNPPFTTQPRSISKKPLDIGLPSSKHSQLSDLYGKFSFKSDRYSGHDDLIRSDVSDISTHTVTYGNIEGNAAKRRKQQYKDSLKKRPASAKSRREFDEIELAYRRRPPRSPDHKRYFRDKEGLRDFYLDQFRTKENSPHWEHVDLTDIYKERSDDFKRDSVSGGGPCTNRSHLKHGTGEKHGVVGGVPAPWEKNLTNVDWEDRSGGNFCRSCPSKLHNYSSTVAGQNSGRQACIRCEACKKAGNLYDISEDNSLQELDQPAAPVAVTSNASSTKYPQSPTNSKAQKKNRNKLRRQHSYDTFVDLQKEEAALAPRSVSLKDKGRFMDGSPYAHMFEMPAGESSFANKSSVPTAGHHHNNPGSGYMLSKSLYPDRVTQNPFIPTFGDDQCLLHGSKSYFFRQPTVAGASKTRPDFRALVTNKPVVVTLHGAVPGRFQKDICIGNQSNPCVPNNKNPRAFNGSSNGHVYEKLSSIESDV
OBSERVED PROPERTY: pKi
Reminder that pKi means the negative base-10 logarithm of the concentration expressed in mol/L.

Which value of pKi has been reported for O=C1C(N2CCC(c3ccc(O)cc3)C(O)C2)CCN1Cc1ccc(F)cc1 (single isomer, unassigned) in the records?
8.24

====

Target: NR2B-subtype NMDA receptors (Rattus norvegicus (Rat), UniProt P35439+Q00960)
Test: Radioligand binding assay (3H Ro 25-6981 competition, forebrain membranes)
Details: 3H Ro 25-6981 (4 nM), read-out: NR2B Binding Ki
Procedure: Radioligand Binding Assay. […] Buchy D; Klingelschmidt A; Messer J; Bleuel Z; Kemp J A; Richards J G. […] Thawed brains were homogenized using a Dounce homogenizer and centrifuged at 48000×g for 20 min. The pellet was resuspended in cold buffer and homogenized again using a Dounce homogenizer. […] The filter plates were dried at 50° C. for 20 mins, incubated with microscint 20 for 10 minutes and finally, the counts were read on TopCount (Perkin Elmer). […]
OBSERVED PROPERTY: pKi
Lab note — pKi values are minus log10 of concentrations in M.

Quick check: pKi of O=C1C(N2CCC(c3ccc(O)cc3)C(F)(F)C2)CCN1Cc1ccc(OC(F)F)cc1 (centres unmarked) [Example 94] ?
6.41

Any idea what its pKi is? The molecule is O=C1C(N2CC[C@H](c3ccc(O)cc3)[C@@H](F)C2)CCN1c1ccc(OC(F)F)c(Cl)c1 (some centres unmarked)
7.40

Sample O=C1C(N2CCC(c3ccc(O)cc3)CC2)CCCN1Cc1ccccc1 (centres unmarked) [Example 40] — what was its pKi?
6.32

Would you kindly share the measured pKi for Cc1ccc(CN2CCC(N3CCCC(c4ccc(O)cc4)CC3)C2=O)cc1 (centres unmarked) ?
7.47

Could you tell me which pKi is on file for O=C1C(N2CCCC(c3ccc(O)cc3)C2)CCCN1Cc1ccc(Cl)cc1 (centres unmarked) ?
6.14

Entry under review: O=C1C(N2CCC(c3ccc(O)cc3)CC2)CCCN1Cc1ccccc1 (single isomer, unassigned) [Example 41b] . Reported pKi?
6.70

Any idea what its pKi is? The molecule is C[C@@H](c1ccc(F)cc1)N1CCC(N2CCC(c3ccc(O)cc3)C(F)(F)C2)C1=O (single isomer, unassigned) [Example 56, P-2]
5.85

What does the data say about its pKi? Entry: `O=C1[C@@H](N2CC[C@H](c3ccc(O)cc3)[C@@H](F)C2)CCN1Cc1ccc(Cl)cc1`
6.25

====

target: NR2B-subtype NMDA receptors (Rattus norvegicus (Rat), UniProt P35439+Q00960); test: Radioligand binding assay (3H Ro 25-6981 competition, forebrain membranes); details: 3H Ro 25-6981 (4 nM), read-out: binding Ki
OBSERVED PROPERTY: pKi
By convention, pKi is the negative base-10 log of a molar concentration.

Could you share which pKi value was measured for O=C1C(N2CCC(c3ccc(O)cc3)CC2)CCN1Cc1ccc(F)cc1 (racemic) [Example 1] ?
8.40

====

biological target: NR2B-subtype NMDA receptors (Rattus norvegicus (Rat), UniProt P35439+Q00960); experiment: Radioligand binding assay (3H Ro 25-6981 competition, forebrain membranes); conditions: 3H Ro 25-6981 (4 nM), listed as 44, E-1, read-out: NR2B Binding Ki
OBSERVED PROPERTY: Ki (nM)
Answer format: numeric, nM implied, no suffix.

Endpoint output: Ki of O=C1C(N2CCC(c3ccc(O)cc3)C(O)C2)CCN1Cc1ccc(F)cc1 (single isomer, unassigned) . Value?
650

====

target: NR2B-subtype NMDA receptors (Rattus norvegicus (Rat), UniProt P35439+Q00960); test: Radioligand binding assay (3H Ro 25-6981 competition, forebrain membranes); details: 3H Ro 25-6981 (4 nM), read-out: NR2B Binding Ki
OBSERVED PROPERTY: log10 Ki (log10 of the value in nM)
In our notation, the value equals log10 of Ki in nM.

Can you look up the measured log10 Ki of O=C1C(N2CC[C@H](c3ccc(O)cc3)[C@@H](F)C2)CCN1Cc1ccc(F)c(F)c1 (stereo partly drawn) [Example 85] for me?
1.36

Give the measured log10 Ki of O=C1[C@@H](N2CC[C@@H](c3ccc(O)c(F)c3)[C@H](F)C2)CCN1Cc1ccc(C(F)F)cc1 [Example 117, P-1] .
1.90

Record request: log10 Ki value, item O=C1[C@H](N2CCC(c3ccc(O)cc3)CC2)CCN1Cc1ccc(O)cc1 [Example 25b]
0.72

Please give the measured log10 Ki for this compound: O=C1C(N2CC(c3ccc(O)cc3)C2)CCN1Cc1ccc(F)c(F)c1 (stereo not drawn) [Example 10]
3.01

Which log10 Ki reading was recorded for the compound O=C1C(N2CCC(c3ccc(O)cc3)C(F)(F)C2)CCN1Cc1ccccc1 (single isomer, unassigned) [Example 91, P-2] ?
1.15

State the recorded log10 Ki for this entry: Cc1ccc(CN2CC[C@@H](N3CC[C@@H](c4ccc(O)cc4)[C@H](F)C3)C2=O)cc1F [Example 47, P-3]
0.58

====

Molecular target: NR2B-subtype NMDA receptors (Rattus norvegicus (Rat), UniProt P35439+Q00960)
Experiment: Radioligand binding assay (3H Ro 25-6981 competition, forebrain membranes)
Conditions: 3H Ro 25-6981 (4 nM), read-out: NR2B Binding Ki
Protocol: Radioligand Binding Assay. […] Buchy D; Klingelschmidt A; Messer J; Bleuel Z; Kemp J A; Richards J G. […] Thawed brains were homogenized using a Dounce homogenizer and centrifuged at 48000×g for 20 min. The pellet was resuspended in cold buffer and homogenized again using a Dounce homogenizer. […] The filter plates were dried at 50° C. for 20 mins, incubated with microscint 20 for 10 minutes and finally, the counts were read on TopCount (Perkin Elmer). […]
Could you mark each record label 1 if its Ki falls strictly under 200 nM, and label 0 if it equals or exceeds it?

Strictly below 200 nM: is that where Ki of `Cc1ccc(CN2CC[C@H](N3CC[C@H](c4ccc(O)cc4)[C@@H](F)C3)C2=O)cc1F` sits?
label 0

Is Ki of Cc1cccc(CN2CCC(N3CCC(c4ccc(O)cc4)C(F)(F)C3)C2=O)c1 (stereo not shown) [Example 93] strictly below 200 nM?
label 1

State whether 200 nM exceeds Ki recorded for O=C1C(N2CC(c3ccc(O)cc3)C2)CCN1Cc1ccccc1 (stereo not shown) .
label 0

Consider O=C1[C@@H](N2CCC(c3ccc(O)cc3)CC2)CCN1Cc1ccc(Cl)cc1 [Example 18a] . Does its Ki lie strictly below 200 nM?
label 1

Could you please tell me whether Ki recorded for `Cc1ccc(N2CC[C@H](N3CC[C@H](c4ccc(O)cc4)[C@@H](F)C3)C2=O)cc1F` is less than 200 nM?
label 0

Problem: For the compound Cc1ccc(CN2CC[C@@H](N3CC(c4ccc(O)cc4)C3)C2=O)cc1 [Example 28b] , is Ki under 200 nM?
label 1

For Cc1ccccc1CN1CCC(N2CC[C@H](c3ccc(O)cc3)[C@@H](F)C2)C1=O (stereo partly shown) , is the recorded Ki below the cut-off of 200 nM?
label 1

Strictly below 200 nM in Ki? O=C1[C@H](N2CCC(c3ccc(O)cc3)C(F)(F)C2)CCN1Cc1ccccc1 (stereo partly shown)
label 1

# TODO verify Ki < 200 nM strictly for this compound: O=C1C(N2CCC(c3ccc(O)cc3)C(O)C2)CCN1Cc1ccc(F)cc1 (stereo not shown) [Example 8]
label 0

Does O=C1C(N2CCC(c3ccc(O)cc3)C(O)C2)CCN1Cc1ccc(F)cc1 (single isomer, unassigned) [Example 9a] have Ki strictly under 200 nM?
label 1

Consider O=C1[C@@H](N2CCC(c3ccc(O)cc3)C(F)(F)C2)CCN1Cc1ccc(Cl)c(F)c1 (single isomer, unassigned) [Example 107, P-1] . Does its Ki lie strictly below 200 nM?
label 0

Consider the compound C[C@@H](c1ccc(F)cc1)N1CCC(N2CCC(c3ccc(O)cc3)C(F)(F)C2)C1=O (single isomer, unassigned) [Example 56, P-3] . Is its Ki strictly less than 200 nM?
label 0

Here's an entry: O=C1[C@@H](N2CCC(c3ccc(O)cc3)C(F)(F)C2)CCN1Cc1ccc(Cl)c(F)c1 (stereo partly shown) [Example 96, P-1] . Is its Ki below 200 nM?
label 0

Find out if reported Ki for `O=C1[C@@H](N2CC[C@@H](c3ccc(O)cc3)[C@H](F)C2)CCN1c1ccc(OC(F)F)c(Cl)c1` is less than 200 nM
label 1

Determine if O=C1C(N2CCC(c3ccc(O)cc3)C(O)C2)CCN1Cc1ccc(F)cc1 (single isomer, unassigned) [Example 9c] shows Ki strictly lower than 200 nM.
label 0

Is it true that Ki reported for O=C1C(N2CCC(c3ccc(O)cc3)CC2)CCN1Cc1ccc(OC(F)F)cc1 (stereo not shown) is less than 200 nM?
label 1

hey, is Ki for O=C1C(N2CCCC(c3ccc(O)cc3)CC2)CCN1Cc1ccccc1 (stereo not shown) lower than 200 nM or not?
label 1

Is 200 nM strictly greater than the compound's reported Ki? compound: O=C1C(N2CCC(c3ccc(O)cc3)C(O)C2)CCN1Cc1ccc(F)cc1 (single isomer, unassigned) [Example 9b]
label 0

Take the compound `Cc1ccc(CN2CC[C@H](N3CC[C@@H](c4ccc(O)c(F)c4)[C@H](F)C3)C2=O)cc1F` and say whether its Ki is less than 200 nM.
label 0

Below 200 nM on Ki? Entry `O=C1[C@@H](N2CC[C@H](c3ccc(O)cc3)[C@@H](F)C2)CCN1Cc1ccc(C(F)(F)F)cc1`
label 0

Quick check: does O=C1C(N2CC[C@H](c3ccc(O)cc3)[C@@H](F)C2)CCN1Cc1ccc(OC(F)F)cc1 (stereo partly shown) have Ki under 200 nM?
label 1

Find out if reported Ki for Cc1ccc(CN2CCC(N3CC(c4ccc(O)cc4)C3)C2=O)cc1F (stereo not shown) is less than 200 nM
label 1

Determine whether this compound shows Ki lower than 200 nM (ties excluded): `O=C1[C@H](N2CC[C@H](c3ccc(O)cc3)[C@@H](F)C2)CCN1Cc1ccc(C(F)(F)F)cc1`
label 1

For `O=C1[C@H](N2CCC(c3ccc(O)cc3)CC2)CCN1Cc1ccc(F)c(F)c1` , is the recorded Ki below the cut-off of 200 nM?
label 1

Determine whether this compound shows Ki lower than 200 nM (ties excluded): `C[C@@H](c1ccc(F)cc1)N1CC[C@@H](N2CC[C@H](c3ccc(O)cc3)[C@@H](F)C2)C1=O`
label 0

Check if Ki falls below 200 nM for `O=C1[C@H](N2CC[C@H](c3ccc(O)cc3)[C@@H](F)C2)CCN1Cc1ccc(Cl)c(F)c1` .
label 1

A record lists `O=C1[C@H](N2CC[C@@H](c3ccc(O)c(F)c3)[C@H](F)C2)CCN1Cc1ccc(Cl)cc1` . Is its Ki below 200 nM?
label 1

Item O=C1[C@@H](N2CCC(c3ccc(O)cc3)C(F)(F)C2)CCN1c1ccc(OC(F)F)c(Cl)c1 (stereo partly shown) : Ki beneath 200 nM, strictly?
label 1

Identify whether the compound C[C@@H](c1ccccc1)N1CCC(N2CCC(c3ccc(O)cc3)CC2)C1=O (stereo partly shown) records Ki below 200 nM.
label 1

Lab note: confirm whether the reported Ki for this compound is below 200 nM, equality not counting. compound: O=C1C(N2CCC(c3ccc(O)c(F)c3)CC2)CCN1Cc1ccccc1 (stereo not shown)
label 1

Find out if reported Ki for C[C@@H](c1ccccc1)N1CC[C@H](N2CCC(c3ccc(O)cc3)CC2)C1=O [Example 33a] is less than 200 nM
label 0
